CONDITION DESCRIPTION: [M+H3C2O2]-; instrument: TW; calibrated with polyalanine
Consider the following molecules; for each one, report its collision cross section (N2).
Form field: result (number plus unit)

collision cross section (N2) reported for this molecule CC(=O)OC[C@]12[C@H](O)C(=O)C(C)=C[C@H]1O[C@@H]1[C@H](O)C[C@@]2(C)[C@]12CO2 [15-Acetyldeoxynivalenol] : 196 Å²

Noted for CC1=C[C@H]2O[C@@H]3[C@H](O)[C@@H](O)[C@](C)([C@@]2(CO)[C@H](O)C1=O)[C@]31CO1 [Nivalenol] : its collision cross section (N2) reads 180 Å²

# collision cross section (N2) (molecule: CC(=O)O[C@@H]1C[C@]2(C)[C@@]3(CO)[C@H](O)C(=O)C(C)=C[C@H]3O[C@H]1[C@@]21CO1 [3-Acetyldeoxynivalenol] ) is 196 Å²

Entry CC1=C[C@H]2O[C@@H]3[C@H](O)C[C@](C)([C@@]2(CO)[C@H](O)C1=O)[C@]31CO1 [Deoxynivalenol] , collision cross section (N2) reported as 183 Å²

====

CONDITION DESCRIPTION: [M+H]+; instrument: TW; calibrated with polyalanine and drug standards
Where a name gives a salt, the structure may show the parent alone.
Give measured collision cross section (N2) for each item. Keep answers brief.
Response body: numeric value in Å², unit text excluded.

Entry CC(=O)[C@@]1(O)CC[C@H]2[C@@H]3CCC4=CC(=O)CC[C@]4(C)[C@H]3CC[C@@]21C [HYDROXYPROGESTERONE] , collision cross section (N2) reported as 179.9

Sure, the documented collision cross section (N2) for O=C(O)C1=C/C(=N/Nc2ccc(S(=O)(=O)Nc3ccccn3)cc2)C=CC1=O [SULFASALAZINE] is 200.4

The compound listed as COc1c(-c2coc3cc4c(cc3c2=O)CC(O)C(C)(C)O4)ccc2c1C=CC(C)(C)O2 (stereo unspecified) [MUNDULONE] has a reported collision cross section (N2) of 210.9

Entry Nc1ccc(C(=O)NCC(=O)O)cc1 [AMINOHIPPURIC ACID] , collision cross section (N2) reported as 155.3

For reference, reported collision cross section (N2) for COc1c(O)cc2c(c1O)[C@@H]1O[C@H](CO)[C@@H](O)[C@H](O)[C@H]1OC2=O [BERGENIN] stands at 168.3

The reported collision cross section (N2) of the compound CC(=O)OC1CCC2(C)C3=C(CC[C@H]2C1(C)C)[C@@]1(C)CC[C@@H]([C@@H](C)CCC=C(C)C)[C@]1(C)CC3 (stereo partly specified) [EUPHOL ACETATE] was 218

Value of measured collision cross section (N2) for the entry COc1ccc2c(C)cc(=O)oc2c1 [HYMECROMONE METHYL ETHER] : 134.4

According to the records, this compound Cc1c(O)c(=O)ccn1C [DEFERIPRONE] displays collision cross section (N2) of 123.2

Lab book: collision cross section (N2) of O=C(CCCN1CCC2(CC1)C(=O)NCN2c1ccccc1)c1ccc(F)cc1 [SPIPERONE] noted as 193.8

get_value(item= Nc1nc(=S)c2ncn([C@@H]3O[C@H](CO)[C@@H](O)[C@H]3O)c2[nH]1 [THIOGUANOSINE] , readout=collision cross section (N2)) returns 164

Entry COc1ccc(-c2oc3ccccc3c(=O)c2O)cc1OC [3-HYDROXY-3',4'-DIMETHOXYFLAVONE] , collision cross section (N2) reported as 164.1

The compound listed as C[C@H]1C(=O)O[C@@H]2CCN3CC=C(COC(=O)[C@](C)(O)[C@]1(C)O)[C@H]23 [MONOCROTALINE] has a reported collision cross section (N2) of 172.9

Reported collision cross section (N2) ( CC(=O)N(c1onc(C)c1C)S(=O)(=O)c1ccc(N)cc1 [SULFISOXAZOLE ACETYL] ) = 161.2

// sample CN(C)CCc1c[nH]c2ccc(C[C@H]3COC(=O)N3)cc12 [ZOLMITRIPTAN] , its collision cross section (N2) was 159.7

collision cross section (N2) in this record for CC(=O)OCC(=O)[C@@]1(O)[C@H](OC(C)=O)C[C@H]2[C@@H]3CCC4=CC(=O)C=C[C@]4(C)[C@@]3(F)[C@@H](O)C[C@@]21C [TRIAMCINOLONE DIACETATE] : 209.5

The compound listed as CC(C)(CO)[C@@H](O)C(=O)NCCC(=O)[O-] [PANTOTHENIC ACID(d) Na salt] shows collision cross section (N2) equal to 146.7

====

Task for the reader: assign each of the following compounds its reported collision cross section (N2).
CONDITION DESCRIPTION: [M+Na-2H]-; instrument: DT; single field, calibrated with ESI Low Concentration Tuning Mix (Agilent)
Give just the numeric value; Å² need not be written.

So, NC(CS(=O)(=O)O)C(=O)O (stereo not given) [CYSTEATE] ? Its collision cross section (N2) was 131.4

Value of measured collision cross section (N2) for the entry O=P(O)(O)OC[C@H]1OC(O)[C@@H](O)[C@@H](O)[C@@H]1O (stereo not given in full) [MANNOSE 6-PHOSPHATE] : 156.7

Item: NC(Cc1c[nH]c2ccc(O)cc12)C(=O)O (stereo not given) [5-HYDROXYTRYPTOPHAN] | collision cross section (N2): 149.7

Documented collision cross section (N2) of Nc1nc(=O)c2ncn([C@@H]3O[C@H](COP(=O)(O)O)[C@@H](O)[C@H]3O)c2[nH]1 [GUANOSINE MONOPHOSPHATE] : 172.1

The compound listed as O=c1ccn([C@@H]2O[C@H](COP(=O)(O)OP(=O)(O)O)[C@@H](O)[C@H]2O)c(=O)[nH]1 [URIDINE 5'-DIPHOSPHATE] shows collision cross section (N2) equal to 178.6

====

CONDITION DESCRIPTION: [M-H]-; instrument: DT; single field, calibrated with ESI Low Concentration Tuning Mix (Agilent)
Kindly supply the reported collision cross section (N2) values for the records listed here.
// note: answer is a bare numeric in Å²

Per the record, CCCCCCCCCCCCCCCCC(=O)[O-] [HEPTADECANOATE] has collision cross section (N2) of 172.9

Briefly, collision cross section (N2) measured for COC(=O)Cc1c[nH]c2ccccc12 [INDOLE-3-METHYL ACETATE] : 141.1

Short answer for O=Cc1cccc(O)c1 [3-HYDROXYBENZALDEHYDE] : collision cross section (N2) was 118

Lab note: CC(=O)NC(CCCCN)C(=O)O (centres undefined) gave collision cross section (N2) of 145

compound O=C([O-])CCc1ccccc1O [3-(2-HYDROXYPHENYL)PROPANOATE] , collision cross section (N2) observed: 133.2

collision cross section (N2) reported for this compound O=C([O-])c1cc(=O)[nH]c(=O)[nH]1 [OROTATE] : 121.5

Reported collision cross section (N2) of O=c1cc[nH]c(=O)[nH]1 : 112.9

Looking up C/C(=C/C(=O)O)C(=O)O [2-METHYLMALEATE] , I found its collision cross section (N2) recorded as 118.2

Field collision cross section (N2) (entry NCCC(=O)N[C@@H](Cc1cnc[nH]1)C(=O)O ) reads 152.1

====

Provide the reported collision cross section (N2) of each item.
CONDITION DESCRIPTION: [M+H]+; instrument: TW; calibrated with polyalanine
Give the number; Å² is assumed, so skip it.

response.value for O=c1cc[nH]c(=O)[nH]1 (field: collision cross section (N2)) = 115

Record summary for N[C@@H](Cc1ccccc1)C(=O)O : reported collision cross section (N2) = 135

Reported collision cross section (N2) of Nc1ncnc2c1ncn2[C@@H]1O[C@H](CSCC[C@H](N)C(=O)O)[C@@H](O)[C@H]1O : 179

response.value for O=C(O)c1cccnc1 (field: collision cross section (N2)) = 115

Form: molecule = O=C1CC[C@@H](C(=O)O)N1 ; collision cross section (N2) = 121

The reported value for Nc1nc(=O)c2[nH]cnc2[nH]1 in terms of collision cross section (N2) is 124

====

CONDITION DESCRIPTION: [M+H]+; instrument: TW; calibrated with polyalanine and drug standards
Assign true to entries whose collision cross section (N2) meets or exceeds 200 Å²; assign false to the rest.

Query block: Determine whether measured collision cross section (N2) meets or exceeds 200 Å² for COc1cc(O)c(C(C)=O)c(O)c1
Result block: false

Query block: For this compound, is measured collision cross section (N2) 200 Å² or higher? Cc1coc2c1C(=O)C(=O)c1c-2ccc2c1CCCC2(C)C
Result block: false

Query block: Could you tell me if the measured collision cross section (N2) of CN=C(NC#N)NCCSCc1nc[nH]c1C reaches 200 Å² or more?
Result block: false

Query block: Given the entry COc1ccc(C(C)=O)c(O)c1 , answer whether its collision cross section (N2) meets or surpasses 200 Å².
Result block: false

Query block: Reported collision cross section (N2) at or above 200 Å²? Cc1cc(NC(=O)C2=C(O)c3ccccc3S(=O)(=O)N2C)no1
Result block: false

Query block: Identify whether the reported collision cross section (N2) of the following compound is 200 Å² or greater: CSc1nc2cc(Oc3cccc(Cl)c3Cl)c(Cl)cc2[nH]1
Result block: false

Query block: hey, is collision cross section (N2) for this one >= 200 Å²? Clc1ccc2c(c1)C(N1CCNCC1)=Nc1ccccc1O2
Result block: false

Query block: Exam item: decide whether the reported collision cross section (N2) for CCOC(=O)c1c(C)cc(O)c(C=O)c1O is at least 200 Å².
Result block: false

Query block: Item O=C(O[C@@H]1Cc2c(O)cc(O)cc2O[C@@H]1c1cc(O)c(O)c(O)c1)c1cc(O)c(O)c(O)c1 [EPIGALLOCATECHIN-3-MONOGALLATE] with collision cross section (N2) of 200 Å² or above?
Result block: true

Query block: Is reported collision cross section (N2) greater than or equal to 200 Å² here: C[C@H]1O[C@@H](O[C@H]2[C@@H](O)C[C@H](O[C@H]3[C@@H](O)C[C@H](O[C@H]4CC[C@@]5(C)[C@H](CC[C@@H]6[C@@H]5C[C@@H](O)[C@]5(C)[C@@H](C7=CC(=O)OC7)CC[C@]65O)C4)O[C@@H]3C)O[C@@H]2C)C[C@H](O)[C@@H]1O
Result block: true

Query block: Given COc1cc(NS(=O)(=O)c2ccc(N)cc2)ncn1 , state whether its collision cross section (N2) is at least 200 Å².
Result block: false

Query block: Is it the case that CN(C)CCCC1(c2ccc(F)cc2)OCc2cc(C#N)ccc21 (stereo not drawn) has collision cross section (N2) reaching or exceeding 200 Å²?
Result block: false

Query block: Record COc1cc(OC)c2c(c1)O[C@H](c1ccc(OC)c(OC)c1)[C@@H](O)C2 ; criterion: collision cross section (N2) no lower than 200 Å². Met?
Result block: false

Query block: Hi team, for COC1=CC(=O)C(O)=C/C1=C\C=C\c1ccccc1 , is the recorded collision cross section (N2) at or above 200 Å²?
Result block: false

Query block: // inclusive: collision cross section (N2) at least 200 Å²? input: Cc1ccc(-c2cc(C(F)(F)F)nn2-c2ccc(S(N)(=O)=O)cc2)cc1
Result block: false

Query block: Check this compound for collision cross section (N2) at or above 200 Å²: COC[C@]12CN(C=O)C3[C@@H]4[C@H](OC)C1[C@]3(C1CC3(O)C(OC)C(O)C4(OC(C)=O)C1C3OC(=O)c1ccccc1)[C@@H](OC)C[C@H]2O (stereo partly drawn)
Result block: true

Query block: Form field: collision cross section (N2) at least 200 Å²? Entry: NCCCC[C@H](N[C@@H](CCc1ccccc1)C(=O)O)C(=O)N1CCC[C@H]1C(=O)O
Result block: false

Query block: Could you verify whether the entry OC(CCN1CCCCC1)(c1ccccc1)C1CC2C=CC1C2 (stereo not drawn) shows collision cross section (N2) of no less than 200 Å²?
Result block: false

Query block: Threshold query (collision cross section (N2) >= 200 Å²) on Cc1cccc(Nc2ccccc2C(=O)O)c1C
Result block: false

Query block: Hello, I need to know if CCC1(c2ccc(N)cc2)CCC(=O)NC1=O (stereo not drawn) [AMINOGLUTETHIMIDE] has measured collision cross section (N2) not below 200 Å². Thanks!
Result block: false

Query block: # bool: collision cross section (N2) of OCCOCCN1CCN(C2=Nc3ccccc3Sc3ccccc32)CC1 >= 200 Å²
Result block: false

Query block: Does CC1=C2C(=CO[C@H](C)[C@H]2C)C(=O)C(C(=O)O)=C1O have a reported collision cross section (N2) of at least 200 Å²?
Result block: false

Query block: Can O=c1cc(-c2ccc(O)cc2)oc2cc(O)ccc12 [7,4'-DIHYDROXYFLAVONE] be said to have collision cross section (N2) at or above 200 Å²?
Result block: false

Query block: Threshold query (collision cross section (N2) >= 200 Å²) on CC(C)CCC[C@@H](C)[C@H]1CC[C@H]2[C@@H]3C(=O)C=C4C[C@@H](O)CC[C@]4(C)[C@H]3CC[C@]12C
Result block: true

Query block: Does the reported collision cross section (N2) for COc1c2c(cc3occ(-c4ccc5c(c4)OCO5)c(=O)c13)OC(C)(C)C=C2 fall at or above the 200 Å² mark?
Result block: false

Query block: Decide: collision cross section (N2) of COc1cccc(-c2cc(=O)c3cc(OC)ccc3o2)c1 >= 200 Å²?
Result block: false

Query block: Hi team, for C[C@@H]1CC[C@@]2(OC1)O[C@H]1C[C@H]3[C@@H]4CC=C5C[C@@H](O)CC[C@]5(C)[C@H]4CC[C@]3(C)[C@H]1[C@@H]2C , is the recorded collision cross section (N2) at or above 200 Å²?
Result block: true

Query block: For this compound, is measured collision cross section (N2) 200 Å² or higher? O=C(O)CCCc1ccc(N(CCCl)CCCl)cc1
Result block: false

Query block: Answer whether collision cross section (N2) of O=c1[nH]c2ccccc2n1C1CCN(CCCC(c2ccc(F)cc2)c2ccc(F)cc2)CC1 [PIMOZIDE] is greater than or equal to 200 Å².
Result block: true

Query block: Is the recorded value of collision cross section (N2) equal to or greater than 200 Å² for this compound? CC(=O)Nc1cc([As](=O)(O)O)ccc1O
Result block: false
